These entries and their values trace back to patent US20190071416A1.

molecular target: SMYD3 (Homo sapiens, UniProt Q9H7B4); test: SMYD3 biochemical assay (MTase-Glo, MAP3K2 peptide substrate); settings: Table 3; MTase assay, MAP3K2 peptide substrate; read-out: IC50
Sequence (Q9H7B4 whole entry): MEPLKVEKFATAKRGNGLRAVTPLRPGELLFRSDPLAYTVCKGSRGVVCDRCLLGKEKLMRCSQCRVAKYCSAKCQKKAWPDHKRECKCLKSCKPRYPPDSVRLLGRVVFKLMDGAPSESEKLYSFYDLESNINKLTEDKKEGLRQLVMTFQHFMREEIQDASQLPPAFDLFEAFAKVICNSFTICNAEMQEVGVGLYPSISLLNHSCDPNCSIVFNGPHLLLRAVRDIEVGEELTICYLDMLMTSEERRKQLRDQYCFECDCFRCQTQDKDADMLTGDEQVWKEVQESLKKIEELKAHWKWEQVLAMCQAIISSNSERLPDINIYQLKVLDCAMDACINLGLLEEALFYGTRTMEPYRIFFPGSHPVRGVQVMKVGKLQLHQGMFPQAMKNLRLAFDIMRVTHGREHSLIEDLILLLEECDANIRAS
value_type: IC50 (nM)

Look over these answered cases.
CCCOC(=O)N1CCN(C(=O)c2ccc3c(Cl)c4c(nc3c2)CCCC4)C(C(=O)OC)C1 (stereo not shown) [A051] :: 650
CCCOC(=O)N1CCN(C(=O)c2ccc3c(Cl)cc(-c4ccc(OC)cc4)nc3c2)[C@@H](C)C1 [B047] :: 230
CCCOC(=O)N1CCN(C(=O)c2ccc3c(Cl)cc(-c4ccc5ocnc5c4)nc3c2)C[C@H]1C [B243] :: 63
CCCOC(=O)N1CCN(C(=O)c2ccc3c(Cl)cc(-c4ccc(OC)c(CN)c4)nc3c2)C[C@@H]1C [B280] :: 67
CCCOC(=O)N1CCN(C(=O)c2ccc3c(Cl)c4c(nc3c2)CCCC4)C(C)C1C (stereo not shown) [A033] :: 1800

[A] CCCOC(=O)N1CCN(C(=O)c2ccc3c(Cl)cc(-c4ccccc4)nc3c2)C[C@H]1C [B019]
[B] CCCOC(=O)N1CCN(C(=O)c2ccc3c(Cl)c4c(nc3c2)CCCC4)C(CC(=O)N(C)C)C1 (stereo not shown) [A071]
[C] CCCOC(=O)N1CCN(C(=O)c2ccc3c(Cl)cc(-c4ccc(O)c(C)c4)nc3c2)C[C@H]1C [B218]
[D] CCCOC(=O)N1CCN(C(=O)c2ccc3c(Cl)cc(-c4ccc(O)cc4)nc3c2)[C@@H](C)C1 [B160]
[E] CCCOC(=O)N1CCN(C(=O)c2ccc3c(Cl)c(C)c(-c4ccc(F)cc4)nc3c2)CC1 [B022]
Request: List by increasing IC50. # answer = labels listed in requested order
Response: A, D, C, E, B
(A: 60 nM, D: 150 nM, C: 220 nM, E: 850 nM, B: 4200 nM)

[P] CCCOC(=O)N1CCN(C(=O)c2ccc3c(Cl)c4c(nc3c2)CCCC4)C(C#N)C1 (stereo not shown) [A116]
[Q] CCCOC(=O)N1CCN(C(=O)c2ccc3c(Cl)cc(-c4ccc(CN)c(C)c4)nc3c2)CC1 [B108]
Request: Among P and Q , which shows a numerically higher IC50 result? Pick one and reply with its label.
Response: P
